Tested on: CCRF-CEM leukemia
Test: NCI tumour cell line growth inhibition, 48 h
readout-label: TGI (µM)
Number in µM, nothing else.

N[C@H]1CCc2c1nc1c(c2-c2ccccc2)CC[C@@H]1N = 40.7
O=c1c2ccccc2c(C=NCCNCCO)c2oc3ccccc3n12 = 16.1
CC(=O)OC1C(O)COC(Oc2c(C)c3c4c(c2O)[C@@H](C)CC[C@@H]4[C@@H](C)C[C@H]3C=C(C)C)C1O (stereo not given in full) = 27.4
CN([N-]C(=O)CC(=O)[N-]N(C)C(=S)c1ccccc1)C(=S)c1ccccc1.[Cu+2] = 0.121
CCCCCn1ncc(-c2c(O)c(O)cc3c(O)c(-c4c(C)cc5c(-c6cnn(CCCCC)n6)c(O)c(O)cc5c4O)c(C)cc23)n1 = 6.3

Please turn your attention to the following entry.
Q: Could you share which TGI value was measured for COc1ccc(/C=C/c2cc(=O)cc(/C=C/c3ccc(OC)c(O)c3)o2)cc1O ?
A: 5.91

====

System: M14 melanoma
Assay: NCI tumour cell line growth inhibition, 48 h
readout-label: GI50

CC(C)(C)c1cc2c(OP(c3ccccc3)c3ccccc3)c(c1)Cc1cc(C(C)(C)C)cc(c1OP(c1ccccc1)c1ccccc1)Cc1cc(C(C)(C)C)cc(c1OP(c1ccccc1)c1ccccc1)Cc1cc(C(C)(C)C)cc(c1OP(c1ccccc1)c1ccccc1)C2 = > 50 µM
CC(=O)c1ccc(NCn2nc(-c3ccccc3O)oc2=S)cc1 = > 100 µM

Q: Could you share which GI50 value was measured for O=c1cc(-c2ccccc2)oc2cc(OCc3cn(Cc4ccc(F)cc4)nn3)cc(O)c12 ?
A: > 100 µM

Q: Could you share which GI50 value was measured for Cc1cc(C)c(S(=O)(=O)Oc2ccccc2[N+](=O)[O-])c(C)c1 ?
A: 0.976 µM

Q: Could you share which GI50 value was measured for c1ccc(CN2CCC3(CC2)ONC2=NCCN23)cc1 ?
A: > 100 µM

Q: Could you share which GI50 value was measured for COc1cc(C(C)c2cc3c(cc2OCCOCCOc2cc4c(cc2C(C)c2cc(OC)c(OC)c(OC)c2)OCO4)OCO3)cc(OC)c1OC (stereo unspecified) ?
A: > 100 µM

Q: Could you share which GI50 value was measured for C=C(C)[C@@H]1CC[C@]2(C)[C@H](CC=C3[C@@H]4CC(C)(C)CC[C@]4(C(=O)OC)CC[C@]32C)[C@@]1(C)CC/C(N)=N/O ?
A: 1.78 µM

Q: Could you share which GI50 value was measured for COc1ccc(/C=C2/CCOC2=O)cc1 ?
A: > 100 µM

Q: Could you share which GI50 value was measured for CC(=O)OC1C(O)COC(Oc2c(C)c3c4c(c2O)[C@@H](C)CC[C@@H]4[C@@H](C)C[C@H]3C=C(C)C)C1O (stereo partly specified) ?
A: 14.6 µM

Q: Could you share which GI50 value was measured for CC(C)(C)OC(=O)N(CCCn1c2c(c3ccccc3c1=O)C(=O)c1ccccc1-2)CCN(CCCn1c2c(c3ccccc3c1=O)C(=O)c1ccccc1-2)C(=O)OC(C)(C)C ?
A: > 50 µM

Q: Could you share which GI50 value was measured for CCOc1ccccc1N=C(NC(=O)CC)SC ?
A: > 100 µM

====

System: OVCAR-8 ovarian
Assay: NCI tumour cell line growth inhibition, 48 h
readout-label: TGI

CSc1ccc2c(cc1=O)C(NC(=O)c1cc(O)c(OC(=O)O)c(O)c1)CCc1cc(O)c(O)c(O)c1-2 (stereo not drawn) = > 90 µM
CO/N=C(\COc1ccc2c(=O)cc(-c3ccccc3)oc2c1)c1ccc(OC)cc1 = > 100 µM

Q: Could you share which TGI value was measured for COC(=O)c1ccccc1C1CN=NC12Cc1c(C)c3c(c(C)c1C2=O)CCC3 (stereo not drawn) ?
A: > 100 µM

====

Entries and their TGI values follow.
Test system: NCI-H460 lung
Experiment: NCI tumour cell line growth inhibition, 48 h

Please review the entries below; each comes with its answer.
c1ccc(SCCP(CCP(c2ccccc2)c2ccccc2)c2ccccc2)cc1 (stereo not given) = > 100 µM
COc1cc([N+](=O)[O-])c(S(=O)(=O)O)cc1-n1nc(-c2ccccc2)n[n+]1-c1cc(S(=O)(=O)[O-])c([N+](=O)[O-])cc1OC = > 100 µM
NC(CCc1nc(-c2ccccc2)cs1)C(=O)O (stereo not given) = > 100 µM

Q: Could you share which TGI value was measured for COc1ccc(-c2c(N)n(-c3cc(OC)cc(OC)c3)c(=O)c3cc([N+](=O)[O-])ccc23)cc1 ?
A: > 100 µM

Q: Could you share which TGI value was measured for CCCCn1c(=O)c(/C=C/C(=O)/C=C/c2ccc(O)c(OC)c2)cc2ccc(Cl)cc21 ?
A: 4.17 µM

====

Tested on: TK-10 renal
Assay: NCI tumour cell line growth inhibition, 48 h
readout-label: TGI

CCOc1ccc2c(-c3ccnc(Nc4cccc(C(F)(F)F)c4)n3)cnn2n1 = > 23.8 µM

Q: Report TGI for CCCC/C=C1\CCC(CN2CCOCC2)C1=O (stereo not given) tested on TK-10 renal.
A: 19.5 µM

Q: Report TGI for CNC1=C(Br)C(=O)C2=C(C1=O)C1C3=C(C(=O)C=CC3=O)C2c2ccccc21 (stereo not given) tested on TK-10 renal.
A: 34.4 µM

Q: Report TGI for C=CC1(C)/C(=N\O)C(C)(CC)C(=O)N1O (stereo not given) tested on TK-10 renal.
A: > 100 µM

Q: Report TGI for CN1C(=O)c2cccc3c([N+](=O)[O-])ccc(c23)C1=O tested on TK-10 renal.
A: 15.6 µM

====

Tested on: EKVX NSCLC
Experiment: NCI tumour cell line growth inhibition, 48 h
readout-label: GI50

Please review the entries below; each comes with its answer.
COc1ccc(CNCCCN2C(=O)c3ccc4c5c(ccc(c35)C2=O)C(=O)N(CCCNCCCCNCCCN)C4=O)c(OC)c1OC = 4.05 µM
CCCCn1c(=O)c(/C=C/C(=O)/C=C/c2ccc(O)c(OC)c2)cc2ccc(Cl)cc21 = 2.18 µM
CN1CCN(c2ccc3nc(-c4ccc5nc(-c6ccc(C(F)(F)F)cc6)[nH]c5c4)[nH]c3c2)CC1 = 2.06 µM
CC(=O)c1ccc(NCn2nc(-c3ccccc3O)oc2=S)cc1 = > 100 µM
COc1cc2c(c(OC)c1OC)C(=O)c1c-2n(CCCN)c(=O)c2cc([N+](=O)[O-])ccc12 = 3.02 µM
c1ccc(CN2CCC3(CC2)ONC2=NCCN23)cc1 = > 100 µM
CCc1nc2cc(/C=C/C(=O)NO)c(F)cc2c(=O)n1CCc1ccccc1 = 2.36 µM
COc1cc(/C=C\c2cc(/C=C\c3ccc(O)c(OC)c3)n(C(=O)Nc3ccc(C(F)(F)F)cc3)n2)ccc1O = 3.22 µM
CC(C)NCCCNC1=C(Cl)C(=O)c2ccccc2C1=O = 1.4 µM

Please turn your attention to the following entry.
Q: Could you share which GI50 value was measured for Cc1cc2cc(Oc3ccnc(Nc4cccc(CS(=O)(=O)NCCN(C)C)c4)n3)ccc2[nH]1 ?
A: 12.2 µM

====

Entries and their TGI values follow.
Tested on: TK-10 renal
Experiment: NCI tumour cell line growth inhibition, 48 h

Q: Report TGI for COc1ccc(-n2c(C)nc3ccc(N=Cc4ccccc4)cc3c2=O)cc1 tested on TK-10 renal.
A: > 100 µM

Q: Report TGI for CCC1(c2ccncc2)CCC(=O)NC1=O (stereo not given) tested on TK-10 renal.
A: > 100 µM

Q: Report TGI for CCc1nc2cc(/C=C/C(=O)NO)c(F)cc2c(=O)n1CCc1ccccc1 tested on TK-10 renal.
A: 5.49 µM

Q: Report TGI for CCN(CC)CC1CCCCN1CC(=O)N1c2ccc(Br)cc2C(=O)Nc2cccnc21 (stereo not given) tested on TK-10 renal.
A: > 100 µM

Q: Report TGI for CO/N=C(\COc1ccc2c(=O)cc(-c3ccccc3)oc2c1)c1ccc(OC)cc1 tested on TK-10 renal.
A: > 100 µM

Q: Report TGI for CCOC(=O)C1=C(C)N(Cc2ccc(Cl)cc2Cl)C2(O)C(OC)CC(=O)C3C(=O)N(c4ccccc4)C(=O)C132 (stereo not given) tested on TK-10 renal.
A: 22.8 µM

====

System: MALME-3M melanoma
Assay: NCI tumour cell line growth inhibition, 48 h
readout-label: TGI

Please review the entries below; each comes with its answer.
Cc1cc(Cl)ccc1N1C(=O)C(=O)C(c2nc3ccccc3s2)/C(=N\NC(=O)c2ccccc2O)C1=O (stereo not drawn) = > 100 µM
O=C(CN1CCOCC1)NC1=Nc2ncccc2C(=O)NN1 = > 10 µM

Please turn your attention to the following entry.
Q: Could you share which TGI value was measured for CCOC(=O)c1c(SCC#N)n(-c2ccccc2)c(=S)n(-c2ccccc2)c1=O ?
A: > 100 µM
